This section presents substances with their documented Viable cell density (%) values.
Test system: HEK-CMV-Luc2-Hygro cells
Experiment: High-throughput genome-wide siRNA screen and validation screen for luciferase expression
Type: cell-based, human
Experimental Setup: Table 4; primary screen, 72 h, negative control = 100%
Experimental: The Silencer Select™ Human genome siRNA library (Ambion), which targets 21,585 human genes with 3 siRNAs per gene, was used for screening. Each siRNA is arrayed in an individual well (Corning 3570, 384 well, white, solid bottom plates). […] All plates were incubated at room temperature for 20 minutes to stabilize the luminescent signal and the signal was then measured with PerkinElmer Envision 2104 Multilabel™ plate reader. […]
Endpoint Name: Viable cell density (%)

substance="137 (GAACCGUCGCUACAAGACATT; chemistry not given here; listed as Homo sapiens) [compound 137]" observed_result=88.616%
substance="133 (GAACUUCAAUGGAAAACAUTT; chemistry not given here; listed as Homo sapiens) [compound 133]" observed_result=63.577%
substance="154 (CAACAGUACUUACCGAUGUTT; chemistry not given here; listed as Homo sapiens) [compound 154]" observed_result=115.513%
substance="186 (CGAAACUUGUCAACGGGAATT; chemistry not given here; listed as Homo sapiens) [compound 186]" observed_result=104.553%
substance="139 (GGAGAUAUGCAAAGCAGAATT; chemistry not given here; listed as Homo sapiens) [compound 139]" observed_result=83.011%
substance="128 (CAGCAAACCUUUGACCAGATT; chemistry not given here; listed as Homo sapiens) [compound 128]" observed_result=55.405%

----------
This section presents substances with their documented Luciferase activity (%) values.
Tested on: HEK-CMV-Luc2-Hygro cells
Experiment: High-throughput genome-wide siRNA screen and validation screen for luciferase expression
Assay type: cell-based, human
Experimental Setup: Table 6; polyamine pathway gene siRNAs
Endpoint Name: Luciferase activity (%)

substance="222 (GACUUUCACUUCCGCCUUATT; chemistry not given here; listed as Homo sapiens) [compound 222]" endpoint_name="Luciferase activity (%)" observed_result=74.3
substance="227 (CGAUGAACAUGUUAGACAUTT; chemistry not given here; listed as Homo sapiens) [compound 227]" endpoint_name="Luciferase activity (%)" observed_result=30.4
substance="226 (CACUCGCAGUUAAUAUCAUTT; chemistry not given here; listed as Homo sapiens) [compound 226]" endpoint_name="Luciferase activity (%)" observed_result=25.2
substance="215 (GCUAACUUAUUCUACUCCGTT; chemistry not given here; listed as Homo sapiens) [compound 215]" endpoint_name="Luciferase activity (%)" observed_result=171.1

----------
This section presents substances with their documented Viable cell density (%) values.
System: HEK-CMV-Luc2-Hygro cells
Experiment: High-throughput genome-wide siRNA screen and validation screen for luciferase expression
Assay type: cell-based, human
Experimental Setup: Table 4; primary screen, 72 h, negative control = 100%
Endpoint Name: Viable cell density (%)

substance="107 (CCAUAUAUCCGAAUGACCATT; chemistry not given here; listed as Homo sapiens) [compound 107]" endpoint_name="Viable cell density (%)" observed_result=63.879%
substance="135 (CAGGUAGUGUAAGCCCUCATT; chemistry not given here; listed as Homo sapiens) [compound 135]" endpoint_name="Viable cell density (%)" observed_result=66.872%
substance="180 (CCACCCUACUAUGUACUGUTT; chemistry not given here; listed as Homo sapiens) [compound 180]" endpoint_name="Viable cell density (%)" observed_result=93.181%
substance="151 (GAAACUGCAUGAGAAGACATT; chemistry not given here; listed as Homo sapiens) [compound 151]" endpoint_name="Viable cell density (%)" observed_result=59.084%
substance="190 (CUGUGGAAAAGAUACCGUATT; chemistry not given here; listed as Homo sapiens) [compound 190]" endpoint_name="Viable cell density (%)" observed_result=95.368%
substance="142 (AAGUCAACAUAGCCCGAAATT; chemistry not given here; listed as Homo sapiens) [compound 142]" endpoint_name="Viable cell density (%)" observed_result=111.487%
substance="170 (CCAACAAGGAAGACGAAAATT; chemistry not given here; listed as Homo sapiens) [compound 170]" endpoint_name="Viable cell density (%)" observed_result=267.320%
substance="173 (GACUAUUGAUACCAAAACATT; chemistry not given here; listed as Homo sapiens) [compound 173]" endpoint_name="Viable cell density (%)" observed_result=82.689%
substance="99 (CCCGGAUACUUCUGAAGAATT; chemistry not given here; listed as Homo sapiens) [compound 99]" endpoint_name="Viable cell density (%)" observed_result=75.879%
substance="177 (CUCUUAUGGUAACCAAUGATT; chemistry not given here; listed as Homo sapiens) [compound 177]" endpoint_name="Viable cell density (%)" observed_result=91.558%
substance="184 (GCCUGAAUCUUGUCCCAAATT; chemistry not given here; listed as Homo sapiens) [compound 184]" endpoint_name="Viable cell density (%)" observed_result=82.390%
substance="108 (CGGAAUCAAUGAUCCUGUATT; chemistry not given here; listed as Homo sapiens) [compound 108]" endpoint_name="Viable cell density (%)" observed_result=71.395%
substance="94 (AGAGGCUACUUUGAAAACATT; chemistry not given here; listed as Homo sapiens) [compound 94]" endpoint_name="Viable cell density (%)" observed_result=66.938%
substance="157 (GAACAGCUGGGAACCUUCATT; chemistry not given here; listed as Homo sapiens) [compound 157]" endpoint_name="Viable cell density (%)" observed_result=60.645%
substance="109 (GCAUCGAGGAGACUAACAATT; chemistry not given here; listed as Homo sapiens) [compound 109]" endpoint_name="Viable cell density (%)" observed_result=51.696%
substance="118 (UGUGGACUGAGGUACCCAATT; chemistry not given here; listed as Homo sapiens) [compound 118]" endpoint_name="Viable cell density (%)" observed_result=58.901%
substance="172 (GGAUAUUGGAGGCUAGUCATT; chemistry not given here; listed as Homo sapiens) [compound 172]" endpoint_name="Viable cell density (%)" observed_result=289.677%
substance="148 (CAGCCUCACCAAGCACAAATT; chemistry not given here; listed as Homo sapiens) [compound 148]" endpoint_name="Viable cell density (%)" observed_result=85.866%
substance="96 (ACACUCUUGUGGUCAAGAATT; chemistry not given here; listed as Homo sapiens) [compound 96]" endpoint_name="Viable cell density (%)" observed_result=73.809%
substance="104 (GGCGAAUGCUCCUGACUAATT; chemistry not given here; listed as Homo sapiens) [compound 104]" endpoint_name="Viable cell density (%)" observed_result=103.888%
substance="131 (GGAGAAAGAAUCAACGGAATT; chemistry not given here; listed as Homo sapiens) [compound 131]" endpoint_name="Viable cell density (%)" observed_result=70.586%

----------
Tested on: HEK-CMV-Luc2-Hygro cells
Experiment: High-throughput genome-wide siRNA screen and validation screen for luciferase expression
Type: cell-based, human
Experimental Setup: Table 4; primary screen, 72 h, negative control = 100%
Description: The Silencer Select™ Human genome siRNA library (Ambion), which targets 21,585 human genes with 3 siRNAs per gene, was used for screening. Each siRNA is arrayed in an individual well (Corning 3570, 384 well, white, solid bottom plates). […] All plates were incubated at room temperature for 20 minutes to stabilize the luminescent signal and the signal was then measured with PerkinElmer Envision 2104 Multilabel™ plate reader. […]
Hi! Just check whether per cell luciferase yield (%) is below 200%. Below gives true, equal or above gives false.

substance="124 (GAAUAACCGUUGGUUUAAUTT; chemistry not given here; listed as Homo sapiens) [compound 124]" label_class=false
substance="164 (GCAGGCACAUGGUUCCUCUTT; chemistry not given here; listed as Homo sapiens) [compound 164]" label_class=false
substance="108 (CGGAAUCAAUGAUCCUGUATT; chemistry not given here; listed as Homo sapiens) [compound 108]" label_class=false
substance="189 (GAACAAAAUAGACCUCUUATT; chemistry not given here; listed as Homo sapiens) [compound 189]" label_class=true
substance="111 (CAACCUUAUUAUCAUUGAATT; chemistry not given here; listed as Homo sapiens) [compound 111]" label_class=false
substance="153 (CACUUUCCUGGGUAUUGUATT; chemistry not given here; listed as Homo sapiens) [compound 153]" label_class=true
substance="134 (GAUCGUUUGAGAGAACAAATT; chemistry not given here; listed as Homo sapiens) [compound 134]" label_class=false
